- TESTED_SYSTEM: T1, P6mS
- T1 chain: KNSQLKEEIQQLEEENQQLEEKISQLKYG
- PROTOCOL: two-hybrid library CC1;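 note: natural log of median RNA to DNA barcode read ratio; higher means stronger binding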
- SETUP_CONDITIONS: mean of both orientations
PROPERTY_LABEL: interaction score

>>> observed_measurement("EIQQLEEEISQLEQKNSQLKEKNQQLKYG [P3mS]")
-2.74
>>> observed_measurement("ENQALEQEIAQLEQEIAALEQKNAQLKYG [P11]")
-2.82
>>> observed_measurement("KNSQLKEEIQQLEEENQQLEEKIRQLKYGC [P6SC1]")
-2.87
>>> observed_measurement("ENSQLEEKISQLKQKNSQLKEEIQQLEYG [P5mS]")
-0.205
>>> observed_measurement("KISQLKQKIQQLKQENQQLEEENSQLEYG [P4mS]")
-3
>>> observed_measurement("KNAQLKEKIAALKEKIQQLKEENQALEYG [P12]")
-2.73
>>> observed_measurement("ENSQLEEKISQLKQKNSRLKEEIARLEYGC [P5SC1]")
0.307
>>> observed_measurement("KNERLKEEIQRLEQENQQLEEKISQLKYGC [P6SC2]")
-2.75
>>> observed_measurement("KNAQLKEENAALEEKIQQLKEKIQALKYG [P10]")
-2.78
>>> observed_measurement("ENARLEEKIRQLKQKNSQLKEEIQQLEYGC [P5SC2]")
0.24
>>> observed_measurement("SPEDENAALEEKIAQLKQKNAALKEEIQALEYG [P5]")
0.1
>>> observed_measurement("SPEDKIAQLKQKIQALKQENQQLEEENAALEYG [P4]")
-2.85

Provenance of the data: paper PMC10397247
